Assay: inhibition of 3D7 malaria parasite growth – strain 3D7 (AID 2306);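 note: 0% = DMSO wells and 100% = chloroquine plus artemisinin control wells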
Conditions: P. falciparum 3D7 erythrocytic growth, LDH absorbance, 72 h; at 2 µM; hits give high values
Please go through the items and note down their growth inhibition.
The reply should contain only the number, in %.

What the record says about CC1(CCN2CCC(c3c[nH]c4cnccc34)CC2)CCCc2c(Br)cccc2C1=O (stereo not drawn) : growth inhibition is 101

What the record says about CCc1c(CCNCCCCCCNC(C)(C)Cc2ccc3c(c2CC)OCO3)ccc(OC)c1OC : growth inhibition is 101

What the record says about COc1ccccc1-c1sccc1C(=O)NC1(c2cc(Cl)cc(Cl)c2)CCCC1 : growth inhibition is 88

What the record says about CC1(C)N=C(N)N=C(N)N1OCCCSc1ccccc1 : growth inhibition is 93

What the record says about COc1ccccc1Cn1ccnc1SCC(=O)Nc1cc(C(F)(F)F)ccc1Cl : growth inhibition is 96

What the record says about CCCc1cc(C(=O)N[C@@H](Cc2ccccc2)[C@H](O)CNC(C)(C)c2cccc(OC)c2)c(F)c(N2CCCC2=O)c1 : growth inhibition is 98

What the record says about CCc1c(CCNCCCCCNCCc2ccc(OC)c(OC)c2CC)ccc(OC)c1OC : growth inhibition is 101

What the record says about O=C(NCCCN1CCC(N2CCCCC2)CC1)C1=Cc2cc(Br)ccc2OC1 : growth inhibition is 100

What the record says about CC1CCCN(C(=O)c2cc(-c3ccccn3)nc3c(Cl)cccc23)C1 (stereo not drawn) : growth inhibition is 86

What the record says about CN(C)c1ccc(-c2ccc(C(=O)NC3CCN(Cc4cccc(C(F)(F)F)c4)CC3)s2)cc1 : growth inhibition is 96

What the record says about Cc1cccc2[nH]c(-c3ccc(-c4cccc(NC(=O)c5cccc(C(N)=O)c5)c4)cc3)nc12 : growth inhibition is 84

What the record says about Cc1ccccc1C1CCN(C2CCC(NC(=O)/C=C/c3c(F)ccc(F)c3F)CC2)CC1 (stereo not drawn) : growth inhibition is 82

What the record says about COc1cc(NC(=O)c2sc(-c3ccc(Cl)cc3)cc2Cl)ccc1OCCN1CCCC1 : growth inhibition is 93

What the record says about CN(CC1CCC(NC(=O)/C=C/c2ccc(Cl)c(Cl)c2)CC1)C1CCC(c2c[nH]c3ccccc23)CC1 (stereo not drawn) : growth inhibition is 99

What the record says about CCN(CC)S(=O)(=O)c1ccc(C(=O)Oc2ccccc2N(Cc2ccc(OC)cc2)C2=NS(=O)(=O)c3ccccc32)cc1 : growth inhibition is 98

What the record says about C=CCc1cc(SC)ccc1Oc1ccc(N)cc1 : growth inhibition is 96

What the record says about Cc1cnc(CS(=O)c2nc3ccc(C(F)(F)F)cc3[nH]2)cc1OCc1ccccc1 (stereo not drawn) : growth inhibition is 93

What the record says about CC(Cc1ccc(CN(CC(N)=O)Cc2ccc(CC(C)NCCc3cccc(Cl)c3)cc2)cc1)NCCc1cccc(Cl)c1 (stereo not drawn) : growth inhibition is 95

What the record says about COC(=O)c1ccc(CCC(C)NCC(O)c2cccc(C(F)(F)F)c2)cc1 (stereo not drawn) : growth inhibition is 99

What the record says about CC(C)CNC(=O)c1cncc(-c2ccc(CNCCCc3ccccc3)cc2)c1 : growth inhibition is 101

What the record says about CCCCCCCN1CC[C@H](NC(=O)Nc2ccnc3ccc(OC)cc23)[C@H](C(=O)OCC)C1 : growth inhibition is 101

What the record says about COc1ccc(C(=O)N[C@@H](CC(C)C)C(=O)NC2CC[C@@H](C)N(C(=O)Nc3ccc(Cl)cc3)CC2=O)cc1OCCN1CCOCC1 (stereo partly drawn) : growth inhibition is 96

What the record says about CC(Nc1nc(Nc2ccc(F)cc2)nc(SCC(N)=O)n1)c1ccccc1 (stereo not drawn) : growth inhibition is 90

What the record says about CC(C)(C)CC(C)(C)c1ccc(O)c(CNC2CCCCC2)c1 : growth inhibition is 98

What the record says about c1ccc(Oc2ccc(Nc3ccnc4cc(-c5cccc(CN6CCOCC6)c5)ccc34)cc2)cc1 : growth inhibition is 101

What the record says about CSc1nc2cc3c(cc2n1C(=O)c1ccc(C)cc1)OCCO3 : growth inhibition is 99

What the record says about O=C(Nc1ccc(-c2cccc(-c3nc4ccccc4[nH]3)c2)cc1)Nc1ccc2c(c1)OCO2 : growth inhibition is 102

What the record says about CN(CCCCCN1CCC(NC(=O)Nc2ccc(Oc3ccccc3)cc2)C1)C(=O)/C=C/c1ccc(Cl)c(Cl)c1 (stereo not drawn) : growth inhibition is 98

What the record says about O=C(NC(Cc1ccccc1)C(=O)O)c1cc(=O)c2ccccc2o1 (stereo not drawn) : growth inhibition is 99

What the record says about CCCCCc1cc(OC(C)=O)c2c(c1)OC(C)(C)C=C2C1=CCN(Cc2ccccc2)CC1 : growth inhibition is 97

What the record says about O=C(Cc1ccccc1)NC(CCN1CCC(O)(c2cccc(C(F)(F)F)c2)CC1)c1ccc(Cl)c(Cl)c1 (stereo not drawn) : growth inhibition is 96

What the record says about Cc1cc(N[C@@H](CC(C)C)C(=O)NCc2cccc(F)c2)nc(NCCc2ccccc2)n1 : growth inhibition is 88

What the record says about Cc1ccc(C(=O)Nc2cc(C(F)(F)F)cc(C(F)(F)F)c2)cc1[N+](=O)[O-] : growth inhibition is 101

What the record says about NC1=NC2(CCCCC2)N(OCCCCCCC2CCCCC2)C(N)=N1 : growth inhibition is 97

What the record says about COc1ccccc1CNC(=O)c1ccc(N2CCN(c3ccncc3)CC2)cn1 : growth inhibition is 96

What the record says about CC(C)CCn1c(Sc2ccc(C#N)c([N+](=O)[O-])c2)nnc1-c1ccc(N(C)C)cc1 : growth inhibition is 97

What the record says about CN(C)CCNc1nccc(N2CCc3ncnc(Nc4ccc(OCc5cccc(F)c5)c(Cl)c4)c3C2)n1 : growth inhibition is 100

What the record says about O=C1OC(c2cc3ccccc3n2S(=O)(=O)c2ccccc2)(c2cc3ccccc3n2S(=O)(=O)c2ccccc2)c2ccccc21 : growth inhibition is 95
